Each recorded value in this set is attributed to the domain aggregation screens of Martell et al. (2025).

Would you kindly list soluble fraction (log2) for each of these sequences?
- assay comment: soluble fraction after stress (log2 fold change); higher = more stays soluble; pooled small domains, quantitative proteomics;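 further: 20 min heating vs room temperature control held 20 min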
- details: stress: 75 degC
Respond using a number only.

Incoming: Supply soluble fraction (log2) value. Item: HMVPEEEATKISVQNVGASDYNFTVKGVQANDPTLTLVRGKTYEFDVTSLGHPFWIKTQKVTGSSSQY
Outgoing: 0.354

Incoming: Supply soluble fraction (log2) value. Item: HMIKRETNDNPVDPASLSLGDRVKILTLNQNGEIISLPDEKGLLQVQVGIMKIGVNVSDIMLI
Outgoing: -0.9

Incoming: Supply soluble fraction (log2) value. Item: HMSSSYTEMQLDKLKKLLEKETLLSSEKSELKSLIHDFDKIPEVVSPLIVGEYLRLKNKYIAVINSLE
Outgoing: -1.25

Incoming: Supply soluble fraction (log2) value. Item: HMAQLPADMSKVKSADISEAQLQEFIQKATSSGYNMNQIEMEFAKRGMSENEVSLLRPRLRRLMAS
Outgoing: -0.0413

* * *

- assay comment: soluble fraction after stress (log2 fold change); higher = more stays soluble; pooled small domains, quantitative proteomics
- details: stress: 75 degC
Categories are assigned from the measured soluble fraction (log2) using these intervals: low = under -1, moderate = from -1 up to -0.02, high = -0.02 and over

Incoming: Please classify: HMENISVESKMKLLLKSLKTRDFISLPELVLKGESKLAISVILVAALELNRKGYIEVVQAEQFGEIYFKNT
Outgoing: moderate

Incoming: Please classify: HMPTVLKQGSTGQEVKELQQALSKLGYRVTVTGEFDTATHYGVVRFQRKHRLTIDGIVGPQTLSKIRAHQK
Outgoing: low

Incoming: Please classify: HMSASLPAAVEDPDLPYRVGAKLRHARWGEGLLVGIQREGSDVIATVHFASVGRKRLSLQYAHLEE
Outgoing: low

Incoming: Please classify: HMDFSERLARAMSLAGYTQGRLAKEVGMAQSSVNKLLNGANGSRKTVEIASVLGVRPEWLSTGAGEML
Outgoing: moderate

Incoming: Please classify: HMGQVAKPPLKELGADPVTGKPMVLKDGRFGPYVTDGEYNASLRKDDDIETIGVERAAELLQIRREKGP
Outgoing: moderate

Incoming: Please classify: HMGNLEENFRLKAGTEDGAWEFIRYHLGKLPVVNESNGTAIVNAERQAFLLFDRMVAFHIQRGVMVPLSAP
Outgoing: moderate

Incoming: Please classify: HMRMYDVNEYSDEELHRILDLSSPTDSELEARILQMIQKYKYTNGGDNEKMAVFFENIYHHFFD
Outgoing: low

Incoming: Please classify: HMDRNEFVSTLRAALTGAVSPAIVEDNVRYYQNYISQEIASGKSEKEVLDGLGDPRLIARTIIDT
Outgoing: high

Incoming: Please classify: HMKKITTANPLDINRATLAQLDTLPGIGPVTAERIIAYRSKVGRINSLDELKKISGLGGMKFEEIKPLLRV
Outgoing: high

Incoming: Please classify: HMYPIYDYISNMYLGKHLNAGMSLEEARGIMDEMLEKLLFDVPEEYHIDRDHFYEYLKKYYTERFSA
Outgoing: low

Incoming: Please classify: HMGQLIGKEEAKQIALSRAGVAEGDISRYESELDTDDGKTKYEISFHVGRVEYDIEINAVTGAVEKFEMDN
Outgoing: high

Incoming: Please classify: HMGFYDLFINLADKVGSLADVTQILAEARINLVNVHILEIREEIDGIAQLTFSSEKDRQKALELLKTKYK
Outgoing: low

Incoming: Please classify: HMHEGNWTLPNPMPIGTTLTLPEHSRLYISNLAGQRVFETSATSVEIPLLPKGTYLLRLETMNGHTTRKIL
Outgoing: moderate

Incoming: Please classify: HMIFRPALITDLDAVERHYTELLTREAETGRSSTNWSLGVYPTRQTATAAQAAGTLWVLEREGQVVASVI
Outgoing: moderate

Incoming: Please classify: HMSLHSITIPQEFIGAVIGPGGKVIQEIQKQTGTTITITEKDNKGYVDIFGEDKGALDSALARIKEIVAIP
Outgoing: high

Incoming: Please classify: HMKNNYQYIVDQIKQLILDGELIVGDRLPSERDLSEMYQVSRASVREALKALETIGLLESRHGGGNYIVNH
Outgoing: low

Incoming: Please classify: HMYVVLYPGMARDEAVQVMNELQSRGIDYYEKNGNIYVPKTDENSLRMELANLGYPKTTNNYD
Outgoing: high

* * *

Would you kindly list soluble fraction (log2) for each of these sequences?
- assay comment: soluble fraction after stress (log2 fold change); higher = more stays soluble; pooled small domains, quantitative proteomics
- details: stress: 75 degC
Respond using a number only.

Incoming: Supply soluble fraction (log2) value. Item: HMRDADRYAFMQENVEDFAKDMRRKHMTYDVLYEEYIRRTDNPYGYTQFKAIVQEYEKNHDYK
Outgoing: -0.367

Incoming: Supply soluble fraction (log2) value. Item: HMARNHYETLGVGRTATGDEIRKAYRSEAQKHHPDRGGDAERMQSLNEARDTLLDDQARAAYDQELDL
Outgoing: 0.154

Incoming: Supply soluble fraction (log2) value. Item: HMTLGARTLAAIQSLPKVQQAVFTMKHFEGLKYREISQITGTSEGALKASYHIALEKIKAFLREK
Outgoing: -2.18

Incoming: Supply soluble fraction (log2) value. Item: HMDRYAVRAEELAAALAQYHRHVGVYPENLEDLIAPTGPRGYRGPYLSELPTNPSTSKPDWGYDPATGRVS
Outgoing: 0.432

* * *

Would you kindly list soluble fraction (log2) for each of these sequences?
- assay comment: soluble fraction after stress (log2 fold change); higher = more stays soluble; pooled small domains, quantitative proteomics
- details: stress: 75 degC
Respond using a number only.

Incoming: Supply soluble fraction (log2) value. Item: HMTYFIADLIGLQVYTDSGELLGKVDDIYNSGSADIYVVKDELGKQILLPGIKDVIKQIDVDNEKIIVHLI
Outgoing: -1.24

Incoming: Supply soluble fraction (log2) value. Item: HMTTYSVDLGDIRAVADSDGKLVELTLHAAVTTHYSHSELADRLNLAFTALREEAQADYETRY
Outgoing: 0.223

Incoming: Supply soluble fraction (log2) value. Item: HMYRLDVEISDEIKRDIDEETLSEIKGIIAEDPRPSYQNDETRIYRFTFAGREISFRVKDRTATVTEIL
Outgoing: -0.921

Incoming: Supply soluble fraction (log2) value. Item: HMRRTVIVTAAHAEIRERPDANAPLVFSAEQKVSLDYQETAPGGWVKVRHRDGQSGYVRTNQI
Outgoing: -0.716

Incoming: Supply soluble fraction (log2) value. Item: HMTLSHAINRLRLNANMSQEQFAGLFHVSQQSVQKWESGDSVPELSKLIAIAKHFGISLDALILGN
Outgoing: -2.52

Incoming: Supply soluble fraction (log2) value. Item: HMNNIIEQIKADIKKLEEKLDKSSENALNKLEKDYSSLSTESKKKLDDAGYGARIKALRVKFAALSTQ
Outgoing: -0.0452

Incoming: Supply soluble fraction (log2) value. Item: HMRPTYRTRLEVLINNPAISGRDLDFAQSLLSYYERKGRLSAGRVKWVTTLEERYSPENLAASAAK
Outgoing: -0.856

Incoming: Supply soluble fraction (log2) value. Item: HMSDIATLVPGPTDAELAASALRGLDAALDADTPVRLSLGEPGGEVEVPRSVLAALARVLDSFAHGEGVTL
Outgoing: -0.0408

Incoming: Supply soluble fraction (log2) value. Item: HMGNVRSWKGWTSAGGTRVQMRQGDSINSMARRYGVPIQAIVAVNGIDDPAKVQPGQSVIIPTYVY
Outgoing: -0.29

Incoming: Supply soluble fraction (log2) value. Item: HMESLSHRQKSIVDWVQKNGYASIERMAEQFEVSAQTIRRDVIELSERRILQRHHGGASLPAG
Outgoing: -0.211

Incoming: Supply soluble fraction (log2) value. Item: HMNQIDDADRKRVVDEVAGQFSSMSLTEMRSDREKLLSRIIPQVQTTLNRLGLQTIDVEGIAREVIARVG
Outgoing: -0.0822

Incoming: Supply soluble fraction (log2) value. Item: HMINLRTALNNAGVMQKELSDILYMTPQDVNRRFSGVTKWKPLEKRAIMQFLEDRGFEYTEEQLF
Outgoing: -0.564

Incoming: Supply soluble fraction (log2) value. Item: HMKEQLITVYVSGAVARPGLYELPAGIRAQEAVEAAGGFTEAANHEKVNLAKKLKDGSQVNVPALK
Outgoing: -0.122

Incoming: Supply soluble fraction (log2) value. Item: HMANIAVTIPTGSSGDRIADILLQAGLIKDKQDFNQAVIAAGAEGKLRAGYFVIPSNATPAEIISILT
Outgoing: -0.521

Incoming: Supply soluble fraction (log2) value. Item: HMVARPVLQIGSTGADVTAIQARLGVSQTGYFGVLTAAAVTNFQRSNGIAASGKVGATTWAKLMQSA
Outgoing: -2.37

Incoming: Supply soluble fraction (log2) value. Item: HMKPFVVVPIDQVRVGMFIQLDLGWMQHPFPVGSFRVASEAQIDTLRSLDLESVRYLPAKSDPAFQQP
Outgoing: -2.82

Incoming: Supply soluble fraction (log2) value. Item: HMEDEVSSSAAYQALLEKGVSKTLARSWVIDYGEAYVLDKVDLTTSQAARGKIKSSTAGFLKAAIEEDFHN
Outgoing: -0.0992

Incoming: Supply soluble fraction (log2) value. Item: HMKDLSMPDVMGSSLNDAKKALTELGIMDITVRYVESGSSEGSIVGMEPPAGSKFAADGKVVLQVSSGS
Outgoing: 0.542

Incoming: Supply soluble fraction (log2) value. Item: HMEKSLSAQVYEKIKAGIISLKYPPGSVLKERELSESLGVSRTPVREAIQRLSQESWLVPGEGKRMQVRP
Outgoing: -0.0542

Incoming: Supply soluble fraction (log2) value. Item: HMLPDYLIELKKKADSGDAVSQNDIGNIYLYGLPRVNIYPDEKNIGIGIDYLYKAAWQDQVNAMTTI
Outgoing: -0.098

Incoming: Supply soluble fraction (log2) value. Item: HMHELKIEKVAEAPNGAMRLLLSDGSEWVLGVKSWNRLNLSLEKILDVNVLRALEKESQYHLLRTKALEL
Outgoing: -1.39

Incoming: Supply soluble fraction (log2) value. Item: HMGKVTILSNPVKDALVIMGLHNAETIDVRLFDNTGRLVMQGSQSRMDISSLSPGLYILQVNGKILKVIK
Outgoing: -3.2

Incoming: Supply soluble fraction (log2) value. Item: HMTPTVEAAKEEVLRVLASAAPRGLTRTELEAEVSFRRTKLRDTLVELERIGRIDSVGRRGNATTYRLIG
Outgoing: -1.44

Incoming: Supply soluble fraction (log2) value. Item: HMGNLASGAYEQIKRRILSLEYLPGSILQERGLAEELGISRTPVREAIHRLSQEGWLKINSRKNIRVR
Outgoing: -2.32

Incoming: Supply soluble fraction (log2) value. Item: HMNLVELKHAEEFNTLIIQDIGGRMKPAHTLASELVRKVFHNDDFNGIDPRKVFLSIIENSKVWFNVPFI
Outgoing: 0.0116

Incoming: Supply soluble fraction (log2) value. Item: HMTVAQEIEARRATIRSSDPAEMARFIRWLIMEGHTEPAADELKKYAENFPEASATTKQLQALLAAR
Outgoing: -0.311

Incoming: Supply soluble fraction (log2) value. Item: HMSESAGKALDILFYLARVEDEVSLARLSKETGMNKATALRYLAVLESWGVVEKRPSGWSLGLSLFELGSK
Outgoing: -2.05

Incoming: Supply soluble fraction (log2) value. Item: HMQFHQDNYALEFIRDLQPVDGAIILSRFKQFDLVELEKAKKIKFSDEHMAWTLYDYDIKKIN
Outgoing: -1.95

Incoming: Supply soluble fraction (log2) value. Item: HMQSDQLSDREREILRLIGSGRTNQEISQELQVSGSTVRTHLQHILDKLGLENRNQAVLYAIRIGLAAPP
Outgoing: -0.163

Incoming: Supply soluble fraction (log2) value. Item: HMNDTLQEYFEALERLKSNNPINVPKNTKINNDSVALEAGRKRGSIKKSREIFAELIEAINNAS
Outgoing: -0.303

Incoming: Supply soluble fraction (log2) value. Item: HMSALTELPVKTVNGKKYHYYVVKQHETVYALSKRFGITPEQLIKYNPSAEDGLQIDQELLFPATEI
Outgoing: -0.353

Incoming: Supply soluble fraction (log2) value. Item: HMEELLVAVKADGSIWADGRPITPDGLASFIDSKPADAVLNLAVDKKAPFAAFVKVVDVAKEKKSGRFVIR
Outgoing: -0.41

Incoming: Supply soluble fraction (log2) value. Item: HMSPVKAPLPGVVLDIHVSVGQEVKASDTVVTLEAMKMENAIKAGVDGKVASISVGKGDSVLEGAVLLTI
Outgoing: -0.0893
